Tested on: Saccharomyces cerevisiae
protocol details: protein stability index of tFT-peptide fusion (C-terminal peptide) (PSI (0-1 scale)); higher = more stable (slower turnover)
test parameters: genetic background: wild type; temperature: 30 C
Reported protein stability index values follow for various sequences
Respond with the number and no other words.

For orientation, consider the following solved cases.
Q) Please supply the value of reported protein stability index for the item SLSLFPPRRLLP
A) 0.734

Q) Please supply the value of reported protein stability index for the item KDINNQKKETQR
A) 0.683

Q) Please supply the value of reported protein stability index for the item SPPPLPPVRPPV
A) 0.722

Q) Please supply the value of reported protein stability index for the item PLPRHSSPLPHI
A) 0.684

Q) Please supply the value of reported protein stability index for the item LPNRRRLFLFPS
A) 0.735

New cases:
Q) Please supply the value of reported protein stability index for the item GGGVGGGGVEYG
A) 0.638

Q) Please supply the value of reported protein stability index for the item PPPSSILSPSTS
A) 0.659

Q) Please supply the value of reported protein stability index for the item GGGFVGGTVAAV
A) 0.725

Q) Please supply the value of reported protein stability index for the item PPTPSPAPSPAP
A) 0.601

Q) Please supply the value of reported protein stability index for the item SLSSTVPRFCEV
A) 0.624

Q) Please supply the value of reported protein stability index for the item FTPSSLRGSLLA
A) 0.687

Q) Please supply the value of reported protein stability index for the item APRRVAVAGETS
A) 0.707

Q) Please supply the value of reported protein stability index for the item QWTVRNQGVMQR
A) 0.73

Q) Please supply the value of reported protein stability index for the item PPPPPLPPLPCP
A) 0.695

Q) Please supply the value of reported protein stability index for the item SLVLLSACRFGF
A) 0.654

* * *

Tested on: Saccharomyces cerevisiae
protocol details: protein stability index of tFT-peptide fusion (C-terminal peptide) (PSI (0-1 scale)); higher = more stable (slower turnover)
test parameters: genetic background: wild type; temperature: 30 C
assay metric: protein stability index
Respond with the number and no other words.

For orientation, consider the following solved cases.
Q) Please supply the value of reported protein stability index for the item PPRPPPPPPAPL
A) 0.688

Q) Please supply the value of reported protein stability index for the item LCVGQVGLWVGR
A) 0.703

Q) Please supply the value of reported protein stability index for the item ALLKGASCRTAS
A) 0.696

New cases:
Q) Please supply the value of reported protein stability index for the item PPAAHPFAPFPS
A) 0.71

Q) Please supply the value of reported protein stability index for the item MTWQSASGNRVA
A) 0.699

Q) Please supply the value of reported protein stability index for the item PHLDSPGPLAII
A) 0.682

* * *

Test system: Saccharomyces cerevisiae
protocol details: protein stability index of tFT-peptide fusion in deletion strain of DAS1 (PSI (0-1 scale)); higher = more stable (slower turnover)
assay metric: protein stability index
Respond with the number and no other words.

For orientation, consider the following solved cases.
Q) Please supply the value of reported protein stability index for the item LKILRQKMFHQN
A) 0.654

Q) Please supply the value of reported protein stability index for the item LVGYLSCVACIN
A) 0.342

Q) Please supply the value of reported protein stability index for the item PSLAASFWREVG
A) 0.705

Q) Please supply the value of reported protein stability index for the item KKHKKGCKQKIN
A) 0.598

Q) Please supply the value of reported protein stability index for the item KKHKAGQKQKIN
A) 0.579

New cases:
Q) Please supply the value of reported protein stability index for the item FQMRWTFRYWVN
A) 0.46

Q) Please supply the value of reported protein stability index for the item ARWRVGWWRGAS
A) 0.701

Q) Please supply the value of reported protein stability index for the item FMMRWTFRYWVN
A) 0.359

Q) Please supply the value of reported protein stability index for the item LKILRQKMNHMN
A) 0.605

Q) Please supply the value of reported protein stability index for the item VRIAVGGWRLVG
A) 0.68

Q) Please supply the value of reported protein stability index for the item PDKRNHVIKLLN
A) 0.605

Q) Please supply the value of reported protein stability index for the item LVVYLSCVECIN
A) 0.262

Q) Please supply the value of reported protein stability index for the item FSMRWEFRYWVN
A) 0.471

Data origin: the supplement of paper PMC10724198
